# assay-overview: n-octanol-water partition coefficient, log P of the compound
# Format: physicochemical
This section presents compounds with their documented logP values.
Give your answer as a number; write no unit.

Before answering, review these 6 worked examples.
For record Cc1cccc(Cl)c1OCC(C)O (configuration not stated) the listed logP is 2.73

Measured logP, OCC(O)COc1ccccc1Cl (configuration not stated) : 1.29

// Cc1cc(OCC(O)CO)ccc1Cl (configuration not stated) : logP value = 1.91

logP for Cc1cccc(Cl)c1OCC(O)CO (configuration not stated) is 1.97

Entry under test: Cc1ccccc1OCC(C)O (configuration not stated) . Its logP was 2.14

Entry under test: Cc1cc(OCC(C)O)cc(C)c1Cl (configuration not stated) . Its logP was 3.18

***
// logP value for OCC(O)COc1ccc(Cl)cc1 (configuration not stated) : 1.4

# compound Cc1cc(OCCCO)cc(C)c1Cl ; its logP = 3.38

Entry Cc1cc(Cl)ccc1OCC(O)CO (configuration not stated) — recorded logP = 2.08

Entry OCC(O)COc1c(Cl)cccc1Cl (configuration not stated) ; logP = 1.88

Recorded result, Cc1cc(OCC(O)CO)cc(C)c1Cl (configuration not stated) , logP: 2.42

Item: Cc1ccccc1OCC(O)CO (configuration not stated) [MEPHENESIN] | logP: 1.38

###

# reported log(1/C); entries follow
# Tested on: Trichophyton mentagrophytes
# assay-overview: Antifungal activity against Trichophyton mentagrophytes assessed as growth inhibition measured for 14 days by tube dilution method
# Type: functional
Number only, no unit.

Kindly note the recorded log(1/C) for Cc1cc(Cl)cc(C)c1OCC(O)CO (stereo unspecified) , which is 2.76

Query OCC(O)COc1ccc(Cl)cc1Cl (stereo unspecified) yields log(1/C) of 2.61

log(1/C) reading for Cc1cc(OCCCO)cc(C)c1Cl : 3.93

The reported value for OCCCOc1ccc(Cl)cc1 in terms of log(1/C) is 3.07

The reported value for OCC(O)COc1ccccc1Cl (stereo unspecified) in terms of log(1/C) is 2.31

New cases:
Entry under test: Cc1ccccc1OCC(O)CO (stereo unspecified) . Its log(1/C) was 2.26

For CC(O)COc1ccccc1Cl (stereo unspecified) the molecule record lists log(1/C) as 2.84

The molecule Cc1cc(Cl)cc(C)c1OCCCO showed log(1/C) equal to 3.51

GET /value?item= Cc1cc(OCC(C)O)ccc1Cl (stereo unspecified) &field=log(1/C) returns 3.3

The recorded log(1/C) for Cc1cc(Cl)c(OCC(C)O)c(Cl)c1 (stereo unspecified) is 3.47

Input Cc1cccc(Cl)c1OCC(O)CO (stereo unspecified) . Output log(1/C): 2.33

Field log(1/C) (entry CC(O)COc1c(Cl)cccc1Cl (stereo unspecified) ) reads 3.04

# log(1/C) of Cc1cc(Cl)c(OCC(O)CO)c(Cl)c1 (stereo unspecified) = 3.1

Sample OCC(O)COc1ccc(Cl)cc1 (stereo unspecified) ; log(1/C) observed: 2.31

Query Cc1cc(OCC(O)CO)ccc1Cl (stereo unspecified) yields log(1/C) of 2.9

log(1/C) measured on Cc1cc(Cl)ccc1OCC(O)CO (stereo unspecified) = 2.33

###

# assay-overview: n-octanol-water partition coefficient, log P of the compound
# Type: physicochemical
readout-name: logP
Please reply with the value in numeric form only.

Memo: Cc1cc(Cl)cc(C)c1OCC(O)CO (stereo unspecified) , reported logP: 2.76

Looking up Cc1cc(OCC(C)O)ccc1Cl (stereo unspecified) , I found its logP recorded as 2.67

Form: molecule = Cc1cc(Cl)c(OCCCO)c(Cl)c1 ; logP = 3.36

Further cases:
logP recorded for this molecule, Cc1ccccc1OCCCO , is 2.34

logP reported for this molecule Cc1cc(Cl)cc(C)c1OCCCO : 3.72

get_value(item= CC(O)COc1ccccc1Cl (stereo unspecified) , readout=logP) returns 2.05

So, CC(O)COc1c(Cl)cccc1Cl (stereo unspecified) ? Its logP was 2.64

###

# Species on record: Rattus norvegicus
# assay-overview: Binding affinity to rat thyroid hormone receptor
Recorded log(activity) for the following compounds
Answer field: number only, no words.

Sure, the documented log(activity) for NC(Cc1cc(I)c(Oc2cc(F)c(O)c(F)c2)c(I)c1)C(=O)O (racemic) is 0.26

In plain terms, NC(Cc1cc(Br)c(Oc2ccc(O)c(I)c2)c(Br)c1)C(=O)O (racemic) has a documented log(activity) of 2.11

NC(Cc1cc(I)c(Oc2cc(I)c(O)c(I)c2)c(I)c1)C(=O)O (racemic) yielded log(activity) of 2

###

# Test system: Trichophyton mentagrophytes
# assay-overview: Antifungal activity against Trichophyton mentagrophytes assessed as growth inhibition measured for 14 days by tube dilution method
# Assay type: functional
readout-name: log(1/C)
Hey, just send me the number, nothing else.

Below: 4 compounds and their reported log(1/C).
Kindly note the recorded log(1/C) for OCC(O)COc1c(Cl)cccc1Cl (configuration not stated) , which is 2.37

In plain terms, Cc1cc(Cl)c(OCCCO)c(Cl)c1 has a documented log(1/C) of 3.67

Lab book: log(1/C) of Cc1ccccc1OCC(C)O (configuration not stated) noted as 2.46

Looking up Cc1cccc(Cl)c1OCC(C)O (configuration not stated) , I found its log(1/C) recorded as 2.7

Further cases:
Value of measured log(1/C) for the entry CC(O)COc1ccc(Cl)cc1 (configuration not stated) : 2.81

The recorded log(1/C) for entry Cc1ccccc1OCCCO equals 2.79

The measured log(1/C) associated with Cc1cc(Cl)ccc1OCC(C)O (configuration not stated) reads 3.3

compound CC(O)COc1ccc(Cl)cc1Cl (configuration not stated) , log(1/C) observed: 3.35

Cc1cc(OCC(C)O)cc(C)c1Cl (configuration not stated) has a reported log(1/C) of 3.68

Value of log(1/C) reported for the compound Cc1cc(OCC(O)CO)cc(C)c1Cl (configuration not stated) is 3.24

log(1/C) reading for Cc1cc(Cl)cc(C)c1OCC(C)O (configuration not stated) : 3.51

Per the record, Cc1cccc(Cl)c1OCCCO has log(1/C) of 2.78

###

Listing: log(1/C) of selected compounds
# Species: Rattus norvegicus
# assay-overview: Antagonist activity at rat adrenergic receptor assessed as inhibition of adrenaline-induced response
Lab note: jot the number down without any unit.

In the examples that follow, each entry is paired with its recorded log(1/C).
Query CN(C)CC(Br)c1ccccc1 (configuration not stated) yields log(1/C) of 7.46

The compound listed as Cc1cccc(C(Br)CN(C)C)c1 (configuration not stated) has a reported log(1/C) of 8.46

Please fill in: log(1/C) reported for CN(C)CC(Br)c1ccc(Cl)cc1 (configuration not stated) = 8.68

More entries:
Form field log(1/C), entry CN(C)CC(Br)c1ccc(Cl)c(Cl)c1 (configuration not stated) : 8.89

Record CN(C)CC(Br)c1cccc(Cl)c1 (configuration not stated) , field log(1/C): 8.16

Given item CN(C)CC(Br)c1ccc(F)cc1 (configuration not stated) , the value recorded as its log(1/C) is 8.16

Input Cc1ccc(C(Br)CN(C)C)cc1Br (configuration not stated) . Output log(1/C): 9.52

// CN(C)CC(Br)c1ccc(Br)c(Cl)c1 (configuration not stated) : log(1/C) value = 9

Entry Cc1cc(C(Br)CN(C)C)ccc1Cl (configuration not stated) , log(1/C) reported as 8.96

###

# Organism: Rattus norvegicus
# assay-overview: Binding affinity to rat thyroid hormone receptor
Friendly reminder: log(activity) below -0.4 is Fulfilled, at or above is Not fulfilled.

Solved entries (count: 4):
Query :: # check: log(activity) < -0.4 for NC(Cc1cc(Br)c(Oc2ccc(O)c(Br)c2)c(Br)c1)C(=O)O (racemic)
Result :: Not fulfilled

Query :: Answer whether the compound NC(Cc1cc(I)c(Oc2ccc(O)c(Br)c2)c(I)c1)C(=O)O (racemic) has log(activity) strictly less than -0.4
Result :: Not fulfilled

Query :: Is the reported log(activity) for NC(Cc1cc(I)c(Oc2ccc(O)cc2)c(I)c1)C(=O)O (racemic) strictly below -0.4?
Result :: Fulfilled

Query :: Please indicate whether the reported log(activity) of NC(Cc1cc(Br)c(Oc2cc(Br)c(O)c(Br)c2)c(Br)c1)C(=O)O (racemic) is strictly below -0.4.
Result :: Not fulfilled

Here is another compound to look at.
Query :: Dear reviewer, please state whether NC(Cc1cc(Cl)c(Oc2cc(I)c(O)c(I)c2)c(Cl)c1)C(=O)O (racemic) has log(activity) strictly beneath -0.4.
Result :: Fulfilled

###

Quick list: logP per entry.
# assay-overview: n-octanol-water partition coefficient, log P of the compound
# Type: physicochemical
Give only the figure.

Use the examples below as a reference point.
// recorded logP for OCC(O)COc1ccc(Cl)cc1Cl (centres undefined) : 1.99

# compound OCCCOc1ccc(Cl)cc1 ; its logP = 2.36

Lab book: logP of CC(O)COc1ccc(Cl)cc1 (centres undefined) noted as 2.16

// field: logP; key: Cc1cccc(Cl)c1OCCCO ; value = 2.93

logP reading for Cc1cc(Cl)c(OCC(O)CO)c(Cl)c1 (centres undefined) : 2.4

For record Cc1cc(Cl)ccc1OCC(C)O (centres undefined) the listed logP is 2.84

logP in this record for Cc1cc(Cl)cc(C)c1OCC(C)O (centres undefined) : 3.52

The reported logP of the compound Cc1cc(Cl)c(OCC(C)O)c(Cl)c1 (centres undefined) was 3.16

Others:
Lab book: logP of CC(O)COc1ccc(Cl)cc1Cl (centres undefined) noted as 2.75

// provenance: ChEMBL document CHEMBL3272258
